Recorded values, source patent US20250101120A1.

Target: T1, hFc-hFasL (fusion protein of human Fc fragment and human FasL extracellular region) (human, UniProt P48023 134-281)
T1 construct: the order here follows the name hFc-hFasL; also called hFc-FasL; hFc-hFasL antigen; not shown: human Fc fragment tag
T1 sequence: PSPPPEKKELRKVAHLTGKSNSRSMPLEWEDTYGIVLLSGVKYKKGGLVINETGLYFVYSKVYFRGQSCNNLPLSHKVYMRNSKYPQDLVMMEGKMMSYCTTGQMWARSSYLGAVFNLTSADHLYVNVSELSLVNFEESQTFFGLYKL
Assay: ELISA, hFc-hFasL coated, antibody titrated, anti-human kappa-HRP
Quick list: EC50 per entry.
Reply numerically in nM, unit not repeated.

Below, each entry is followed by its recorded EC50 result.
binder="FL-M05 (antibody, V domains shown, Chimeric full-length antibody, tested as human IgG4 / human kappa) VH: EVQLQQSGAELVRPGVSVKISCKGSGYTFTDYTMHWVKQSHAKSLEWIGVISTYQGDARYNQKFKGKATMTVDKSSSTAYMELARLTSEDSAIYYCARFPDWDYAMDYWGQGTSVTVSS VL: DIVLTQSPASLAVSLGQRATISCKASQSVDYDGDSYMNWYQQKPGQPPKLLIYAASNLESGIPARFSGSGSGTDFTLNIHPVEEEDAATYYCQHSRELPYTFGGGTKLEIK" display_unit=nM measured_result=0.186
binder="FL-M56 (antibody, V domains shown, Chimeric full-length antibody, tested as human IgG4 / human kappa) VH: EVQLQQSGPELVKPGASVKLSCKASGYTFTRFDISWVRQRPEQGLEWIGWIFPGDGSTQYNENFKGKATLTTDKSSGTAYMQLNRLTSEDSAVYFCARSLISTAMFDHWGQGTTLTVSS VL: DIVLTQSPASLAVSLGQRATISCRASKSVSTSDFSYIHWYQQKPGLPPKLLIFLASHLESGVPARFSGSGSGTDFTLNIHPVEEEDAATYYCQHSRELPRTFGGGTKLEIK" display_unit=nM measured_result=0.661

From here, focus on the item given below.
Lookup: Quick one: EC50 of FL-M54 (antibody, V domains shown, Chimeric full-length antibody, tested as human IgG4 / human kappa) VH: EVQLQQSGVELVKPGASVKLSCKASGYTFTRFDISWVRQRPEQGLEWIGWIFPGDGSSQYNENFKGKATLTTDKSSGTAYMQLNRLTSEDSAVYFCARSLISTAMFDHWGQGTTLTVSS VL: DIVMTQSPASLAVSLGQRATISCRASKSVSTSDFSYIHWYQQKPGQPPKLLIFLASHLESGVPARFSGSGSGTDFTLNIHPVEEEDAATYYCQHSRELPRTFGGGTKLEIK ?
Found: 0.725
